Quick reference for TD50 among some molecules
Test system: rodent lifetime carcinogenesis bioassay, tumor incidence TD50
Procedure summary: carcinogenic potency in animals, long-term in vivo studies, CPDB compilation (AID 1745844)
Condition context: mouse; strain B6C3F1; females; in feed; site: any site (literature study); lesion: several types; types named in the paper; dosed 104 weeks; study length 106 weeks
// note: answer is a bare numeric in mg/kg/day

1) c1ccc2n[nH]nc2c1 : 18900

Query: Give its TD50 value. Item: `OCC(CO)(CBr)CBr`
Result: 57.3

====

System: rodent lifetime carcinogenesis bioassay, tumor incidence TD50
Procedure summary: carcinogenic potency in animals, long-term in vivo studies, CPDB compilation (AID 1745844)
Condition context: mouse; strain B6C3F1; females; inhaled; site: lung; lesion: alveolar/bronchiolar adenoma; dosed 61 weeks; study length 61 weeks
Readout kind: TD50

Query: # query: TD50 of entry `C=CC=C`
Result: 259 mg/kg/day
